Data provenance is paper PMC2806825.

Target: CB2 receptors (Mus musculus)
Construct: expressed in transfected cells
Sequence (P47936 whole entry): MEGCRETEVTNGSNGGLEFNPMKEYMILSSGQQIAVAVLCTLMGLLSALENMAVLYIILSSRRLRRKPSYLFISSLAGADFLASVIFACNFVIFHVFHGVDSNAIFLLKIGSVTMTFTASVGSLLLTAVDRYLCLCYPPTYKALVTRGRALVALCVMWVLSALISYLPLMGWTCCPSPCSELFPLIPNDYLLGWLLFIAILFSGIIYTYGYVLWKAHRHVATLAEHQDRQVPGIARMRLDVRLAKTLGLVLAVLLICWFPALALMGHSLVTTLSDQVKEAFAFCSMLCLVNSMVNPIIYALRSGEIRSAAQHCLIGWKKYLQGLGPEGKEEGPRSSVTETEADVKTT
Test: Radioligand saturation binding with [3H]CP-55,940 on membranes of CB2-expressing DBT subclones
Conditions: CB2-mid subclone 2H1; mean of 3–5 determinations
property_label: Kd (nM)
Write the number in nM without appending the unit.

So, CCCCCCC(C)(C)c1ccc([C@@H]2C[C@H](O)CC[C@H]2CCCO)c(O)c1 [[^3H]CP-55,940] ? Its Kd was 0.4

###

Molecular target: CB2 receptors (Mus musculus)
Construct: expressed in transfected cells
Assay: Radioligand saturation binding with [3H]CP-55,940 on membranes of CB2-expressing DBT subclones
Conditions: CB2-high subclone 1D6; mean of 3–5 determinations
property_label: pKd
Remember, pKd is on a log scale: it is -log10 of the molar concentration.

According to the records, this compound CCCCCCC(C)(C)c1ccc([C@@H]2C[C@H](O)CC[C@H]2CCCO)c(O)c1 [[^3H]CP-55,940] displays pKd of 9.22
